# ASSAY OVERVIEW: Crystallinity test of acid addition salts of Udenafil
# Format: physicochemical
# Set-up: key: ◯: Formation of crystal; X: No formation of crystal
# CONDITION: crystallization: whether crystallization occurs after dissolving the salt in a suitable solvent
# Procedure: The acid addition salts of Udenafil obtained in Examples 1 to 6 and Comparative Examples were tested for crystallinity and hygroscopicity as follows. 1) detecting whether the crystal is formed in the reaction solution, and 2) crystallization: detecting whether crystallization occurs after dissolving acid addition salt of Udenafil in a suitable solvent.

MOLECULE	Crystallinity test 1-2
O=C(O)CCCC(=O)O	X
O=CO	X
O=C(O)/C=C\C(=O)O [maleci acid]	X

====

# ASSAY OVERVIEW: Crystallinity test of acid addition salts of Udenafil
# Format: physicochemical
# Parameters: key: ◯: Formation of crystal; X: No formation of crystal
# CONDITION: detecting whether the crystal is formed in the reaction solution
# Procedure: The acid addition salts of Udenafil obtained in Examples 1 to 6 and Comparative Examples were tested for crystallinity and hygroscopicity as follows. 1) detecting whether the crystal is formed in the reaction solution, and 2) crystallization: detecting whether crystallization occurs after dissolving acid addition salt of Udenafil in a suitable solvent.

MOLECULE	Crystallinity test 1-1
O=C(O)/C=C/C(=O)O [fumaric acid]	X
O=C(O)CNC(=O)c1ccccc1 [hippuric acid]	X
O=CO [formic acid]	X
